Experiment: Prodrug stability in simulated gastric fluid (USP)
Settings: 37° C.
attributeMeasured: % prodrug remaining following incubation for: 1 h in simulated gastric fluid pH 1.1 (%)
Give your result in % as a bare value.

N=C(NC(=O)Cc1c(Cl)cccc1Cl)NC(=O)OCCNC(=O)CC[C@H](N)C(=O)O [Compound 58] :: 96
C[C@@H](N)C(=O)N[C@@H](CCC(=O)NC(=N)NC(=O)Cc1c(Cl)cccc1Cl)C(=O)O [Compound 41] :: 70
N=C(NC(=O)Cc1c(Cl)cccc1Cl)NC(=O)OC[C@H](NC(=O)[C@@H]1CCC(=O)N1)C(=O)O [Compound 16] :: 78
CCC(C)[C@@H](N)C(=O)NCCCC(=O)NC(=N)NC(=O)Cc1c(Cl)cccc1Cl (stereo partly drawn) [Compound 50, Guanfacine (GABA-(R)-Isoleucine) Amide] :: 85
N=C(NC(=O)CC[C@H](NC(=O)[C@H](N)CCC(N)=O)C(=O)O)NC(=O)Cc1c(Cl)cccc1Cl [Compound 46] :: 61

Name the recorded % prodrug remaining following incubation for: 1 h in simulated gastric fluid pH 1.1 for N=C(NC(=O)CCCNC(=O)CC[C@H](N)C(=O)O)NC(=O)Cc1c(Cl)cccc1Cl [Compound 57, Guanfacine (GABA-(S)-Glutamate) Amide] . 81

Query (compound): N=C(NC(=O)Cc1c(Cl)cccc1Cl)NC(=O)OCC[C@H](NC(=O)CCN)C(=O)O [Compound 67] ; field requested: % prodrug remaining following incubation for: 1 h in simulated gastric fluid pH 1.1 99

Please report the recorded % prodrug remaining following incubation for: 1 h in simulated gastric fluid pH 1.1 for CC(C)[C@@H](N)C(=O)N[C@@H](COC(=O)NC(=N)NC(=O)Cc1c(Cl)cccc1Cl)C(=O)O [Compound 18] . 74

Entry NCCCC[C@@H]1N=C(NC(=O)Cc2c(Cl)cccc2Cl)NC1=O [Compound 36, Guanfacine-(S)-Lysine Cyclic adduct] has what % prodrug remaining following incubation for: 1 h in simulated gastric fluid pH 1.1? 83

---

Each record here notes measured % prodrug remaining following incubation for: 2 h in simulated intestinal fluid pH 6.8.
Assay: Prodrug stability in simulated intestinal fluid (USP)
Conditions: 37° C.
Quick note: give the figure in %, leave out the unit.

Below, 3 compounds whose answers are already recorded.
CC(C)[C@@H](NC(=O)c1ccc(N)cc1)C(=O)NC(=N)NC(=O)Cc1c(Cl)cccc1Cl [Compound 55, Guanfacine (R)-Valine-PABA Amide] :: 91
CNCC(=O)NCCOC(=O)NC(=N)NC(=O)Cc1c(Cl)cccc1Cl :: 89
N=C(NC(=O)Cc1c(Cl)cccc1Cl)NC(=O)Oc1ccc(C[C@H](N)C(=O)O)cc1 [Compound 13, (S)-Tyrosine-(Guanfa ine) Carbamate] :: 81

# lookup: % prodrug remaining following incubation for: 2 h in simulated intestinal fluid pH 6.8 of CNCC(=O)N[C@@H](COC(=O)NC(=N)NC(=O)Cc1c(Cl)cccc1Cl)C(=O)O 96

Return reported % prodrug remaining following incubation for: 2 h in simulated intestinal fluid pH 6.8; argument: CN1CC(=O)N=C1NC(=O)Cc1c(Cl)cccc1Cl [Compound 12, Cyclised Guanfacine Sarcosine Amide] 87

Entry N=C(NC(=O)Cc1c(Cl)cccc1Cl)NC(=O)OC[C@H](NC(=O)[C@@H]1CCC(=O)N1)C(=O)O has what % prodrug remaining following incubation for: 2 h in simulated intestinal fluid pH 6.8? 95

Fill in the blank: the reported % prodrug remaining following incubation for: 2 h in simulated intestinal fluid pH 6.8 of N=C(NC(=O)Cc1c(Cl)cccc1Cl)NC(=O)c1ccc(N)cc1 [Compound 52, Guanfacine PABA Amide] is ____. 97

Query: % prodrug remaining following incubation for: 2 h in simulated intestinal fluid pH 6.8; subject: CC(C)[C@H](NC(=O)CC(C)(C)CC(=O)NC(=N)NC(=O)Cc1c(Cl)cccc1Cl)C(=O)O 99

What does the record list as % prodrug remaining following incubation for: 2 h in simulated intestinal fluid pH 6.8 for CC(C)[C@@H](N)C(=O)N[C@H](CCC(=O)NC(=N)NC(=O)Cc1c(Cl)cccc1Cl)C(=O)O ? 85

Could you share which % prodrug remaining following incubation for: 2 h in simulated intestinal fluid pH 6.8 value was measured for CNCC(=O)N[C@H](C(=O)O)[C@@H](C)OC(=O)NC(=N)NC(=O)Cc1c(Cl)cccc1Cl ? 99

Need % prodrug remaining following incubation for: 2 h in simulated intestinal fluid pH 6.8 of CC(C)C[C@@H](N)C(=O)N[C@@H](CCC(=O)NC(=N)NC(=O)Cc1c(Cl)cccc1Cl)C(=O)O , thanks. 83

Would you mind telling me what % prodrug remaining following incubation for: 2 h in simulated intestinal fluid pH 6.8 value was observed for O=C(O)CC[C@@H]1N=C(NC(=O)Cc2c(Cl)cccc2Cl)NC1=O [Compound 37, Guanfacine-(S)-Glutamic Cyclic adduct] ? 110

Param item = N=C(NC(=O)CC[C@H](NC(=O)[C@H](N)Cc1ccc(O)cc1)C(=O)O)NC(=O)Cc1c(Cl)cccc1Cl ; retrieve measured % prodrug remaining following incubation for: 2 h in simulated intestinal fluid pH 6.8. 91

Sample N=C(NC(=O)Cc1c(Cl)cccc1Cl)NC(=O)OCC[C@H](N)C(=O)O [Compound 65, (S)-Homoserine Guanfacine Carbamate] — what was its % prodrug remaining following incubation for: 2 h in simulated intestinal fluid pH 6.8? 99

---

Assay: Prodrug stability in simulated gastric fluid (USP)
Conditions: 37° C.
Measured % prodrug remaining following incubation for: 1 h in simulated gastric fluid pH 1.1 of individual entries
# unit: % | format: bare number

These recorded examples may help you get a feel for the data.
CC(C)[C@H](N)C(=O)NCCCC(=O)NC(=N)NC(=O)Cc1c(Cl)cccc1Cl [Compound 56, Guanfacine (GABA-(S)-Valine) Amide] :: 70
CC(C)(CO)[C@@H](O)C(=O)NCCCOC(=O)NC(=N)NC(=O)Cc1c(Cl)cccc1Cl [Compound 69, Guanfacine Panthenol Carbamate] :: 85
N=C(NC(=O)CC[C@H](NC(=O)c1ccc(N)cc1)C(=O)O)NC(=O)Cc1c(Cl)cccc1Cl :: 64

Consider the molecule CC(C)[C@H](N)C(=O)NCCOC(=O)NC(=N)NC(=O)Cc1c(Cl)cccc1Cl and give its measured % prodrug remaining following incubation for: 1 h in simulated gastric fluid pH 1.1. 97

Reported % prodrug remaining following incubation for: 1 h in simulated gastric fluid pH 1.1 for C[C@H]1N=C(NC(=O)Cc2c(Cl)cccc2Cl)NC1=O [Compound 51, Guanfacine-(R)-Alanine Cyclic adduct] : what is it? 80

Name the reported % prodrug remaining following incubation for: 1 h in simulated gastric fluid pH 1.1 value associated with the molecule CC(C)[C@H](NC(=O)COC(=O)NC(=N)NC(=O)Cc1c(Cl)cccc1Cl)C(=O)O 80

Which % prodrug remaining following incubation for: 1 h in simulated gastric fluid pH 1.1 value belongs to N=C(NC(=O)Cc1c(Cl)cccc1Cl)NC(=O)OCCNC(=O)CN ? 87

May I ask what % prodrug remaining following incubation for: 1 h in simulated gastric fluid pH 1.1 has been recorded for CC(C)(COC(=O)NC(=N)NC(=O)Cc1c(Cl)cccc1Cl)[C@@H](O)C(=O)NCCC(=O)O [Compound 68, Guanfacine Pantothenic acid Carbamate] ? 86

GET /values?readout=% prodrug remaining following incubation for: 1 h in simulated gastric fluid pH 1.1&item= N=C(NC(=O)CC[C@H](NC(=O)[C@@H]1CCC(=O)N1)C(=O)O)NC(=O)Cc1c(Cl)cccc1Cl 81

---

Test: Prodrug stability in simulated intestinal fluid (USP)
Conditions: 37° C.
attributeMeasured: % prodrug remaining following incubation for: 2 h in simulated intestinal fluid pH 6.8 (%)
Output spec: scalar in %, unitless text.

N=C(NC(=O)Cc1c(Cl)cccc1Cl)NC(=O)OCC[C@H](NC(=O)CCN)C(=O)O [Compound 67] :: 97
CC(C)[C@H](NC(=O)CCCC(=O)NC(=N)NC(=O)Cc1c(Cl)cccc1Cl)C(=O)O [Compound 1] :: 92

Consider the molecule shown here: CC(C)[C@@H](N)C(=O)NCCCC(=O)NC(=N)NC(=O)Cc1c(Cl)cccc1Cl [Compound 22] What is its recorded % prodrug remaining following incubation for: 2 h in simulated intestinal fluid pH 6.8? 85

Return reported % prodrug remaining following incubation for: 2 h in simulated intestinal fluid pH 6.8; argument: CC(C)[C@@H](N)C(=O)N[C@@H](C(=O)NC(=N)NC(=O)Cc1c(Cl)cccc1Cl)C(C)C [Compound 54, Guanfacine (R)-Valine-(R)-Valine Amide] 66

Could you tell me which % prodrug remaining following incubation for: 2 h in simulated intestinal fluid pH 6.8 is on file for CC[C@H](C)[C@H](N)C(=O)NCCOC(=O)NC(=N)NC(=O)Cc1c(Cl)cccc1Cl [Compound 59] ? 100

Which value of % prodrug remaining following incubation for: 2 h in simulated intestinal fluid pH 6.8 has been reported for N=C(NC(=O)Cc1c(Cl)cccc1Cl)NC(=O)Nc1ccc(C(=O)O)cc1 [Compound 53, Guanfacine PABA Urea] in the records? 100
